- target_or_system: FAAH (Rattus norvegicus, UniProt P97612)
- Construct: Frozen brains (without cerebellum) from Wistar rats were used; from tissue; host or cells: Wistar rat brain (without cerebellum), washed membrane pellets
- Sequence (P97612 whole entry): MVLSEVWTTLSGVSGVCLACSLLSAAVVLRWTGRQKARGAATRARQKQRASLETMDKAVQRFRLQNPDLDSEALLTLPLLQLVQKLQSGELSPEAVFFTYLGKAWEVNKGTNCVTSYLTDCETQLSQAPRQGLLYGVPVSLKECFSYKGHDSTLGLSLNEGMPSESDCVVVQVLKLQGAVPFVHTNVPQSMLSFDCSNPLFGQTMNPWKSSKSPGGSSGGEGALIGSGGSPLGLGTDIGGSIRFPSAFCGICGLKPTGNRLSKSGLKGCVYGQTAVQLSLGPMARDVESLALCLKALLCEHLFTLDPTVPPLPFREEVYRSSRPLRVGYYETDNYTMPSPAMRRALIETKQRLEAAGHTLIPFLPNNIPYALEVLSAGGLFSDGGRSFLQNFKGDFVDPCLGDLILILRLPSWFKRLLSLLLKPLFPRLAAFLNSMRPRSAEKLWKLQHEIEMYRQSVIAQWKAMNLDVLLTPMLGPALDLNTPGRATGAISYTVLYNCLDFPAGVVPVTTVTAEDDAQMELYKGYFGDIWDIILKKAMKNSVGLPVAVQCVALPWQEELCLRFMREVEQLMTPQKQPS
- protocol_text: In vitro FAAH activity in rat brain membranes, 3H-AEA substrate, % of control
- Type: biochemical, Wistar rats
- condition_parameters: 100 nM test compound, low value = strong inhibitor
Examples of compounds with documented In Vitro FAAH activity, 100 nM follow.

Known In Vitro FAAH activity, 100 nM results, listed for orientation:
>>> reported("O=C(N1CCOCC1)n1cc(-c2ccccc2)nn1")
"4.5 % of control"
>>> reported("O=C(N1CCN(Cc2ccc(F)cc2)CC1)n1nnc2ccccc21")
"0 % of control"
>>> reported("O=C(N1CCC2(CC1)OCCO2)n1cnc(-c2ccc(Cl)c(Cl)c2)c1")
"33 % of control"

Q: What In Vitro FAAH activity, 100 nM value was documented for this compound, `CN(C(=O)n1cnc2ccccc21)C1CCCCC1` ?
Result: 102.9 % of control

Q: If you can, please state the reported In Vitro FAAH activity, 100 nM value of `CC(C)N(Cc1ccccc1)C(=O)n1cnc(-c2cccc(O)c2)c1` .
Result: 99.6 % of control

Q: Which In Vitro FAAH activity, 100 nM reading was recorded for the compound `O=C(N1CCC(Cc2ccccc2)CC1)n1cnc(-c2ccc(F)cc2F)n1` ?
Result: 0.8 % of control

----------
- target_or_system: FAAH (Mus musculus)
- Construct: A fragment of liver, left lung lobe and brain without cerebellum were removed; from tissue; host or cells: male NMRI mice; brain (without cerebellum) and liver homogenates
- Sequence (O08914 1-579): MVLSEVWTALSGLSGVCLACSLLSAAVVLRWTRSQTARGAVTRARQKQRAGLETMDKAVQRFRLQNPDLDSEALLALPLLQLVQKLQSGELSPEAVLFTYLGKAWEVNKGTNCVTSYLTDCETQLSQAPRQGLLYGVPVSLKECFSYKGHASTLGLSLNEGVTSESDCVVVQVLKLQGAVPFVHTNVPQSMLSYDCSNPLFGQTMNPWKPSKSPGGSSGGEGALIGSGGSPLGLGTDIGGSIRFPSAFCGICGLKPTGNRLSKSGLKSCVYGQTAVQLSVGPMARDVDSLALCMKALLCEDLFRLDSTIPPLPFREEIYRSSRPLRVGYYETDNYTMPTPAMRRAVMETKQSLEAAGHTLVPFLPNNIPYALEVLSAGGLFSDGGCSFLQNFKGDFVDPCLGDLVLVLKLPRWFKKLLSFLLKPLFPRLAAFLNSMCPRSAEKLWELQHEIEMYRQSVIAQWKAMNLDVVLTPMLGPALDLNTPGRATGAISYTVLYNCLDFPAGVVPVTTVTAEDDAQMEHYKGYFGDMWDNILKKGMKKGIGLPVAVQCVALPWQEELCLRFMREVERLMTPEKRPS
- protocol_text: In vivo FAAH inhibition after oral dosing, remaining activity in liver homogenate (LVh, peripheral tissue)
- Set-up: species or system NMRI mice
- condition_parameters: liver homogenate, 30 mg/kg, 1 h
measure_name: In Vivo LVh 30 mg/kg 1 h, remaining FAAH activity

>>> reported("CN(C(=O)n1cnc(-c2ccc3ccccc3c2)c1)c1ccccc1")
"77.3 % of control"

Q: API: value(readout= In Vivo LVh 30 mg/kg 1 h, remaining FAAH activity, system= FAAH (Mus musculus), query= `CCCCN(C)C(=O)n1nnc2ccccc21` )
Result: 2.7 % of control

Q: Entry `CN(Cc1ccccc1)C(=O)n1nnc2ccccc21` , system FAAH (Mus musculus): what In Vivo LVh 30 mg/kg 1 h, remaining FAAH activity was measured?
Result: 6.3 % of control

Q: Missing value: In Vivo LVh 30 mg/kg 1 h, remaining FAAH activity, FAAH (Mus musculus), entry `O=C(NCc1ccccc1)n1nnc2ccccc21` . Fill in?
Result: 83.9 % of control

Q: What is its In Vivo LVh 30 mg/kg 1 h, remaining FAAH activity for FAAH (Mus musculus)? Entry: `CN(C(=O)n1nnc2ccccc21)c1ccc(F)cc1F`
Result: 42.5 % of control

----------
- target_or_system: FAAH (Mus musculus)
- Construct: A fragment of liver, left lung lobe and brain without cerebellum were removed; from tissue; host or cells: male NMRI mice; brain (without cerebellum) and liver homogenates
- protocol_text: In vivo FAAH inhibition after oral dosing, remaining activity in brain homogenate (BRh, central nervous tissue)
- Set-up: species or system NMRI mice
- condition_parameters: brain homogenate, 3 mg/kg, 8 h
In Vivo BRh 3 mg/kg 8 h, remaining FAAH activity: recorded values

Recorded In Vivo BRh 3 mg/kg 8 h, remaining FAAH activity, per entry:
>>> reported("O=C(N1CCC(CCc2ccccc2)CC1)n1nnc2ccccc21")
"68.1 % of control"
>>> reported("CC1OCC(C)(C)N1C(=O)n1cnc(-c2ccc(Cl)cc2)c1 (stereo not drawn)")
"108.5 % of control"

// switching to the query molecule
Q: Need In Vivo BRh 3 mg/kg 8 h, remaining FAAH activity, item `O=C(N1CCCc2ccccc21)n1cnc(-c2cccc(O)c2)c1`
Result: 130.4 % of control

----------
- target_or_system: FAAH (Mus musculus, UniProt O08914)
- Construct: A fragment of liver, left lung lobe and brain without cerebellum were removed; from tissue; host or cells: male NMRI mice; brain (without cerebellum) and liver homogenates
- Sequence (O08914 1-579): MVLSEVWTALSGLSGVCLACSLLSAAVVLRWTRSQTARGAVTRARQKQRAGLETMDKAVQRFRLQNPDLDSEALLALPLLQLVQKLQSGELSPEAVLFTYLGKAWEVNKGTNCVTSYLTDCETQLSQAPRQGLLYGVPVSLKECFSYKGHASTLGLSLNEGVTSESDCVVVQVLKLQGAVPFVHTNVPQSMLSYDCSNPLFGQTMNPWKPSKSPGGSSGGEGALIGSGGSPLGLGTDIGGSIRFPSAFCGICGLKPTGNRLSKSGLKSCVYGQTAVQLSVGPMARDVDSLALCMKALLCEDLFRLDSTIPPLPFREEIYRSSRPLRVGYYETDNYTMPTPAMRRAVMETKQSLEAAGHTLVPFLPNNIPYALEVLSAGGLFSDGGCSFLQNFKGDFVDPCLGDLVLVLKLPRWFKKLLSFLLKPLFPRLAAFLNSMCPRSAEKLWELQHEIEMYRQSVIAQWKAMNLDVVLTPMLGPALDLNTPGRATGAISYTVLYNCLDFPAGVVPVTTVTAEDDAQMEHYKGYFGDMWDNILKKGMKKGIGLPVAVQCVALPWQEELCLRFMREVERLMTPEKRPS
- protocol_text: In vivo FAAH inhibition after oral dosing, remaining activity in liver homogenate (LVh, peripheral tissue)
- Set-up: species or system NMRI mice
- condition_parameters: liver homogenate, 3 mg/kg, 8 h
measure_name: In Vivo LVh 3 mg/kg 8 h, remaining FAAH activity

>>> reported("CN(C(=O)n1nnc2ccccc21)C1CCCCC1 [Compound 58]")
"0.3 % of control"

Q: Dear colleague, I am looking for the recorded In Vivo LVh 3 mg/kg 8 h, remaining FAAH activity of the following compound: NC(=O)c1ccc(Oc2ccc(-c3ncn(C(=O)N4CCN(c5ccccc5)CC4)n3)cc2)cc1 [Compound 148]
Result: 87.6 % of control

----------
- target_or_system: FAAH (Mus musculus)
- Construct: A fragment of liver, left lung lobe and brain without cerebellum were removed; from tissue; host or cells: male NMRI mice; brain (without cerebellum) and liver homogenates
- protocol_text: In vivo FAAH inhibition after oral dosing, remaining activity in brain homogenate (BRh, central nervous tissue)
- Design: species or system NMRI mice
- condition_parameters: brain homogenate, 3 mg/kg, 8 h
measure_name: In Vivo BRh 3 mg/kg 8 h, remaining FAAH activity

See these solved cases before continuing.
>>> reported("CN(C(=O)n1cnc2ccccc21)C1CCCCC1 [Compound 222]")
"111.5 % of control"
>>> reported("CN1CCN(c2ccc(-c3ncn(C(=O)N4CCOCC4)n3)cc2)CC1 [Compound 139]")
"97.1 % of control"

Let us move to another entry and its In Vivo BRh 3 mg/kg 8 h, remaining FAAH activity.
Q: Field request: In Vivo BRh 3 mg/kg 8 h, remaining FAAH activity | item: CC1(C)OCCN1C(=O)n1cnc(-c2ccccc2)c1 [Compound 220]
Result: 31.5 % of control

----------
- target_or_system: FAAH (Rattus norvegicus)
- Construct: Frozen brains (without cerebellum) from Wistar rats were used; from tissue; host or cells: Wistar rat brain (without cerebellum), washed membrane pellets
- protocol_text: In vitro FAAH activity in rat brain membranes, 3H-AEA substrate, % of control
- Format: biochemical, Wistar rats
- condition_parameters: 100 nM test compound, low value = strong inhibitor
The molecules listed here are annotated with their In Vitro FAAH activity, 100 nM.

Here's what some known entries look like.
>>> reported("CN(C)c1ccc(N(C)C(=O)n2nnc3ccccc32)cc1")
"49.2 % of control"
>>> reported("CN(C(=O)n1cnc(-c2ccccc2)n1)c1ccc(F)cc1F")
"73.2 % of control"

Q: // In Vitro FAAH activity, 100 nM lookup, key: `Cl.O=C(N1CCC(N2CCCCC2)CC1)n1nnc2ccccc21`
Result: 69.3 % of control

Q: What value of In Vitro FAAH activity, 100 nM has been reported for the following molecule? `CN(C(=O)n1nnc2cc(Br)ccc21)C1CCCCC1`
Result: 0 % of control

Q: Look up In Vitro FAAH activity, 100 nM: `O=C(N1CCc2ccccc2C1)n1cnc(-c2ccc(Cl)cc2)n1`
Result: 71.8 % of control

Origin of values: patent US9353082B2
